B1: Nuclear receptor subfamily 1 group D member 2, residues 103 to 171; numbered along this chain, Q14995 (parent)
chain: CKVCGDVASGFHYGVHACEGCKGFFRRSIQQNIQYKKCLKNENCSIMRMNRNRCQQCRFKKCLSVGMSR

- Variants of: B1
- PROTOCOL_DESCRIPTION: abundance fitness (aPCA) (normalised: wild type 0, dead -1); higher = more abundant; growth selection in yeast, the domain comes from the species named
- EXPERIMENTAL_SETUP: Homo sapiens
Note to self: class = bucket of abundance fitness, per low bracket = under -0.5, middle bracket = from -0.5 up to -0.1, high bracket = -0.1 and over

{"SEQUENCE_VARIANT": "N50K", "ASSIGNED_CLASS": "middle bracket"}
{"SEQUENCE_VARIANT": "L39P", "ASSIGNED_CLASS": "middle bracket"}
{"SEQUENCE_VARIANT": "R51A", "ASSIGNED_CLASS": "middle bracket"}
{"SEQUENCE_VARIANT": "C57I", "ASSIGNED_CLASS": "middle bracket"}
{"SEQUENCE_VARIANT": "K60E", "ASSIGNED_CLASS": "high bracket"}
{"SEQUENCE_VARIANT": "C62L", "ASSIGNED_CLASS": "low bracket"}
{"SEQUENCE_VARIANT": "Q56M", "ASSIGNED_CLASS": "high bracket"}
{"SEQUENCE_VARIANT": "L39Q", "ASSIGNED_CLASS": "high bracket"}
{"SEQUENCE_VARIANT": "G66P", "ASSIGNED_CLASS": "low bracket"}
{"SEQUENCE_VARIANT": "F59S", "ASSIGNED_CLASS": "low bracket"}
{"SEQUENCE_VARIANT": "N52F", "ASSIGNED_CLASS": "middle bracket"}
{"SEQUENCE_VARIANT": "R48M", "ASSIGNED_CLASS": "high bracket"}
{"SEQUENCE_VARIANT": "S68C", "ASSIGNED_CLASS": "high bracket"}
{"SEQUENCE_VARIANT": "R53E", "ASSIGNED_CLASS": "high bracket"}
{"SEQUENCE_VARIANT": "M47Y", "ASSIGNED_CLASS": "middle bracket"}
{"SEQUENCE_VARIANT": "K40P", "ASSIGNED_CLASS": "low bracket"}
{"SEQUENCE_VARIANT": "C57D", "ASSIGNED_CLASS": "low bracket"}
{"SEQUENCE_VARIANT": "M67L", "ASSIGNED_CLASS": "low bracket"}
{"SEQUENCE_VARIANT": "S64N", "ASSIGNED_CLASS": "middle bracket"}
{"SEQUENCE_VARIANT": "I46N", "ASSIGNED_CLASS": "high bracket"}
{"SEQUENCE_VARIANT": "F25Y", "ASSIGNED_CLASS": "middle bracket"}
{"SEQUENCE_VARIANT": "S68M", "ASSIGNED_CLASS": "high bracket"}
